- Test system: mixed lymphocyte reaction
- assay comment: mixed lymphocyte reaction (MLR) assay (Example 2)
- Type: cell-based
- conditions used: Lymphocyte; FIG. 7; read-out: EC50 for IFNγ secretion in the MLR assay
property label: EC50

Find EC50 (mixed lymphocyte reaction) for the entry `CNC[C@H](C(=O)N1CC2=C(C1)CN(S(=O)(=O)c1ccc3c(c1)OCCO3)C2)c1cccc(Cl)c1`
100 to 1000 nM
